PROTOCOL NOTES: physchem
CONDITION: pH 2, aqueous buffer, thermodynamic from solid
Counter-ions that a name gives are not always drawn.
QUANTITY KIND: solubility (µg/mL)
// units = µg/mL; emit number, no label

Lookup: # get_value(readout='solubility', item= CC1=NS(=O)(=O)c2cc(Cl)ccc2N1 [potassium salt of diazoxide] )
Found: 9900

###

PROTOCOL NOTES: physchem
CONDITION: pH 12, aqueous buffer, thermodynamic from solid
Structures can show the parent of a compound that is named as a salt.
QUANTITY KIND: solubility (mg/mL)
// units = mg/mL; emit number, no label

Lookup: # get_value(readout='solubility', item= CC1=NS(=O)(=O)c2cc(Cl)ccc2N1 [potassium salt of diazoxide] )
Found: 43
